This collection of values is drawn from patent US20050267054A1.

assay: Pharmacokinetic profile, cassette dosing protocol in dog (IV and PO); assay type: in vivo; details: dog, plasma, male beagle dogs, 1 mg/kg, oral dose, read-out: T1/2 (PO) (converted)
half-life for assorted compounds
Write the number in h without appending the unit.

# count of solved cases: 2
compound="CC[C@H]1OC(=O)[C@H](C)C(=O)[C@H](C)[C@@H](O[C@@H]2O[C@H](C)C[C@H](N(C)C)[C@H]2O)C(C)(OC/C=C/c2ccc(-c3nnn(C)n3)s2)C[C@@H](C)C(=O)[C@H](C)[C@H]2NC(=O)O[C@@]21C (stereo in doubt)" observed_property=half-life data_value=7.8
compound="CC[C@H]1OC(=O)[C@@](C)(F)C(=O)[C@H](C)[C@@H](O[C@@H]2O[C@H](C)C[C@H](N(C)C)[C@H]2O)C(C)(OCC#Cc2ccc(-c3nnn(C)n3)s2)C[C@@H](C)C(=O)[C@H](C)[C@H]2NC(=O)O[C@@]21C (stereo in doubt)" observed_property=half-life data_value=11.1

Incoming: Please look up its half-life: CC[C@H]1OC(=O)[C@@](C)(F)C(=O)[C@H](C)[C@@H](O[C@@H]2O[C@H](C)C[C@H](N(C)C)[C@H]2O)C(C)(OC/C=C/c2ccc(-c3nnn(C)n3)s2)C[C@@H](C)C(=O)[C@H](C)[C@H]2NC(=O)O[C@@]21C (stereo in doubt)
Outgoing: 17.2
